# ASSAY EXPLANATION: qHTS of pediatric cancer cell lines to identify multiple opportunities for drug repurposing: Confirmatory screen for NB1643 cells (AID 1347109); further: nearly all actives have a fitted effect of over 45% in size; further: potency means the concentration at half of the fitted maximal effect
# SETUP CONDITIONS: NB1643 neuroblastoma cell viability; series mostly up to 45.9 µM
Records with an inconclusive call do not appear. Calls of active or inactive are those of the source. The call rests on the fitted dose curve; in most records, active means well fitted cell-killing curve with a large enough effect; inconclusive means small, poorly fitted or top-dose-only effect, or effect the other way; inactive means no such curve, though single readings can be large or run the other way.
MEASUREMENT LABEL: Potency

1) COc1cc(NCc2ccc3nc(N)nc(N)c3c2C)cc(OC)c1OC; 9.27 µM (active)
2) COc1nc(N)nc2c1ncn2[C@@H]1O[C@H](CO)[C@@H](O)[C@@H]1O; inactive
3) C[C@@H](CN1CC(=O)NC(=O)C1)N1CC(=O)NC(=O)C1; inactive
4) CCC(=O)O[C@]1(C(=O)SCF)[C@H](C)C[C@H]2[C@@H]3C[C@H](F)C4=CC(=O)C=C[C@]4(C)[C@@]3(F)[C@@H](O)C[C@@]21C; inactive

# input What does the data say about its Potency? Entry: Cc1cccc(N(C)C(=S)Oc2ccc3ccccc3c2)c1
# output inactive

# input What does the data say about its Potency? Entry: CC(C)(C#N)c1cc(Cn2cncn2)cc(C(C)(C)C#N)c1
# output inactive

# input What does the data say about its Potency? Entry: CN(C)c1ccc(C(=C2C=CC(=[N+](C)C)C=C2)c2ccc(N(C)C)cc2)cc1
# output 1.17 µM (active)
